- assay-system: T1, human CD3 on human T cells (human, UniProt P07766 23-207)
- T1 construct: Native TCR-CD3 complex on cells; also called primary human T cells; human pan T cells
- T1 sequence (P07766 23-207 limits assumed): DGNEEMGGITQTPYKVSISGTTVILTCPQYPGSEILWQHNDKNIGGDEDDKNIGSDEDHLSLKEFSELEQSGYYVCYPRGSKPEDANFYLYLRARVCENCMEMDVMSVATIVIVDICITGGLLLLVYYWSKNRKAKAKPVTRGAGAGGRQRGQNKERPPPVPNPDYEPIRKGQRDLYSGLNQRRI
- procedure-details: flow cytometry, Jurkat CD3+ (E6-1)
Measured % positive of individual entries
// return numeric value only (unit: %, not printed)

BLW-3B4 (antibody, V domains shown, OmniRat hybridoma supernatant: human V regions on rat constant regions; also called V regions cloned as CD3B313 (CD3H218/CD3L125)) VH: QVQLQQSGPGLVKPSQTLSLTCAISGDSVFNNNAAWSWIRQSPSRGLEWLGRTYYRSKWLYDYAVSVKSRITVNPDTSRNQFTLQLNSVTPEDTALYYCVRGYSSSFDYWGQGTLVTVSS VL: QSALTQPASVSGSPGQSITISCTGTSRDIGTYKFVSWYQQHPDKAPKVLLYEVSKRPSGVSSRFSGSKSGNTASLTISGLQAEDQADYHCCSYAGSGTLLFGGGTKLTVL ... 72
BLW-2B4 (antibody, V domains shown, OmniRat hybridoma supernatant: human V regions on rat constant regions; also called V regions cloned as CD3B311 (CD3H218/CD3L123)) VH: QVQLQQSGPGLVKPSQTLSLTCAISGDSVFNNNAAWSWIRQSPSRGLEWLGRTYYRSKWLYDYAVSVKSRITVNPDTSRNQFTLQLNSVTPEDTALYYCVRGYSSSFDYWGQGTLVTVSS VL: QSALTQPASVSGSPGQSITISCTGTSRDIGTYKFVSWYQQHPDKAPKVLLYEVNKRPSGVSSRFSGSKSGNTASLTISGLQAEDQADYHCCSYAGSGTLLFGGGTKLTVL ... 53

I'd like to know its % positive. The binder in question is BLX-2E9 (antibody, V domains shown, OmniRat hybridoma supernatant: human V regions on rat constant regions; also called V regions cloned as CD3B315 (CD3H221/CD3L124)) VH: QVQLQQSGPGLVKPSQTLSLTCAISGDSVFNNNGAWSWIRQSPSRGLEWLGRTYYRSKWLYDYAVSVKSRITVNPDTSRNQFTLQLNSVTPEDTALYYCARGYSSSFDYWGQGTLVTVSS VL: QSALTQPASVSGSPGQSITISCTGTSSNIGTYKFVSWYQQHPDKAPKVLLYEVSKRPSGVSSRFSGSKSGNTASLTISGLQAEDQADYHCCSYAGSGTLLFGGGTKLTVL
72

The reported measurements were obtained from patent US20230322924A1.
